Subject of test: IRAK4 (Homo sapiens, UniProt Q9NWZ3)
Sequence (Q9NWZ3 1-460): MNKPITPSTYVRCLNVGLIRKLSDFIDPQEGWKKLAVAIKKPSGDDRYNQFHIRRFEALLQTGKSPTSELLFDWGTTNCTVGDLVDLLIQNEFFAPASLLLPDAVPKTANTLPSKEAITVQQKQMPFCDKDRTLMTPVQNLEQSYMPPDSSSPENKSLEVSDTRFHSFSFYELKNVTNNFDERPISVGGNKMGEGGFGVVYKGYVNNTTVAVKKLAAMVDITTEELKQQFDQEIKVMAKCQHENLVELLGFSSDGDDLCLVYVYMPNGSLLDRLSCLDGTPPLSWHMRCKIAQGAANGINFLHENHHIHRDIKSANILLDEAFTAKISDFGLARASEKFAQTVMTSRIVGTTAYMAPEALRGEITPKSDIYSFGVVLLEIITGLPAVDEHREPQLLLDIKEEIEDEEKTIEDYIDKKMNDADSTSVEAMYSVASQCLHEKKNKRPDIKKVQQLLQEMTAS
Assay protocol: ALE THP1 HTRF (IRAK4 in THP1 cell lysates, Homogeneous Time Resolved Fluorescence)
Cond: THP1 cells
Reported pEC50 by item:
Value format note: pEC50 is -log10 of concentration (mol/L); just state the number.

[Q] Record request: pEC50 value, item CN(CC1CCC(n2cc(NC(=O)c3cnn4ccc(N5C[C@H](N)C[C@@H](F)C5)nc34)c(C(F)F)n2)CC1)C1CCN(c2cccc3c(C4CCC(=O)NC4=O)nn(C)c23)CC1 (stereo partly drawn)
[A] 7.85

[Q] Record request: pEC50 value, item Cn1nc(C2CCC(=O)NC2=O)c2ccc(N[C@H]3CCN(CC4CCC(n5cc(NC(=O)c6cnn7ccc(N8C[C@H](N)C[C@@H](F)C8)nc67)c(C(F)F)n5)CC4)C[C@@H]3F)cc21 (stereo partly drawn)
[A] 8.10

Next, consider the following molecule.
[Q] Record request: pEC50 value, item Cn1nc(C2CCC(=O)NC2=O)c2cccc(N3CCN(CCC4CCC(n5cc(NC(=O)c6cnn7ccc(N8C[C@H](N)C[C@@H](F)C8)nc67)c(C(F)F)n5)CC4)CC3)c21 (stereo partly drawn)
[A] 7.77

====

Subject of test: UniProt Q9NWZ3
Assay protocol: ALE THP1 HTRF (IRAK4 in THP1 cell lysates, Homogeneous Time Resolved Fluorescence)
Cond: THP1 cells
Counter-ions that a name gives are not always drawn.
Please use 1.0 for EC50 under 5 nM and 0.0 for everything else, ties included.

Some solved cases for reference:
[Q] # TODO verify EC50 < 5 nM strictly for this molecule: Cn1nc(C2CCC(=O)NC2=O)c2cccc(N3CCC(NC[C@H]4CC[C@H](n5cc(NC(=O)c6cnn7ccc(N8C[C@H](N)C[C@@H](F)C8)nc67)c(C(F)F)n5)CC4)CC3)c21 (some centres unmarked)
[A] 0.0

[Q] # TODO verify EC50 < 5 nM strictly for this molecule: CN(c1ccc2c(C3CCC(=O)NC3=O)nn(C)c2c1)C1CCN(C[C@H]2CC[C@H](n3cc(NC(=O)c4cnn5ccc(N6C[C@H](N)C[C@@H](F)C6)nc45)c(C(F)F)n3)CC2)CC1 (some centres unmarked)
[A] 1.0

[Q] # TODO verify EC50 < 5 nM strictly for this molecule: CN(C[C@H]1CC[C@H](n2cc(NC(=O)c3cnn4ccc(N5CCOCC5)nc34)c(C(F)F)n2)CC1)C1CCN(c2ccc3c(C4CCC(=O)NC4=O)nn(C)c3c2)CC1 (some centres unmarked)
[A] 0.0

[Q] # TODO verify EC50 < 5 nM strictly for this molecule: CN(c1ccc2c(C3CCC(=O)NC3=O)nn(C)c2c1)C1CCN(CC[C@H]2CC[C@H](n3cc(NC(=O)c4cnn5ccc(N6C[C@H](N)C[C@@H](F)C6)nc45)c(C(F)F)n3)CC2)CC1 (some centres unmarked)
[A] 0.0

[Q] # TODO verify EC50 < 5 nM strictly for this molecule: CN(C[C@H]1CC[C@H](n2cc(NC(=O)c3cnn4ccc(NCCN)nc34)c(C(F)F)n2)CC1)C1CCN(c2ccc3c(C4CCC(=O)NC4=O)nn(C)c3c2)CC1 (some centres unmarked)
[A] 1.0

[Q] # TODO verify EC50 < 5 nM strictly for this molecule: Cn1nc(C2CCC(=O)NC2=O)c2ccc(NC3CCN(CC4CCC(n5cc(NC(=O)c6cnn7ccc(N8CCOCC8)nc67)c(C(F)F)n5)CC4)CC3)cc21 (centres unmarked) [P-27, formic acid salt]
[A] 1.0

[Q] # TODO verify EC50 < 5 nM strictly for this molecule: Cn1nc(C2CCC(=O)NC2=O)c2ccc(NC3CCN(CC4CCC(n5cc(NC(=O)c6cnn7ccc(N8C[C@H](N)C[C@@H](F)C8)nc67)c(C(F)F)n5)CC4)CC3)cc21 (some centres unmarked)
[A] 1.0

[Q] # TODO verify EC50 < 5 nM strictly for this molecule: Cn1nc(C2CCC(=O)NC2=O)c2cccc(NC3CCN(CC4CCC(n5cc(NC(=O)c6cnn7ccc(N8C[C@H](N)C[C@@H](F)C8)nc67)c(C(F)F)n5)CC4)CC3)c21 (some centres unmarked)
[A] 0.0

We next turn to a different molecule, shown below.
[Q] # TODO verify EC50 < 5 nM strictly for this molecule: CN(CC1CCC(n2cc(NC(=O)c3cnn4ccc(N5Cc6cnn(C)c6C5)nc34)c(C(F)F)n2)CC1)C1CCN(c2ccc3c(C4CCC(=O)NC4=O)nn(C)c3c2)CC1 (centres unmarked)
[A] 0.0
